system: N-acetyldehydroleucine acylase; assay: Hydrolysis of other compounds by the acylase (TLC / amino acid analyzer); assay type: biochemical, Zoogloea ramigera; details: 50 mM test substrate, 0.1 M tris/HCl pH 9, 25° C.; hydrolysis rate with N-acetyldehydroleucine = 100%
Where a SMILES comes first, the peptide text is derived from it.
Measured Attribute: rel. activity (%)
One number for each entry, in %.

For orientation, consider the following solved cases.
Compound | Experimental Result
NC(=O)[C@@H](N)Cc1c[nH]c2ccccc12 [L-tryptophane amide] | 20.4
CC(C)C[C@H](NC(=O)[C@H](C)N)C(=O)O [L-alanyl-L-leucine] (H-Ala-Leu-OH) | 0
CSCC[C@H](N)C(N)=O [L-methionine amide] | 4.69
CC(=O)N[C@@H](Cc1ccccc1)C(=O)O [N-acetyl-L-phenylalanine] | 0
COC(=O)NC(C(=O)O)C(C)C (racemic) [N-methoxycarbonyl-D,L-valine] | 0

Dear reader, for each entry below, please note its rel. activity (%).
1. CC(C)C[C@H](NC(=O)CN)C(=O)O [Glycyl-L-leucine]
2. CC(C)C[C@H](N)C(N)=O [L-leucine amide]
3. CC(C)[C@H](NC(N)=O)C(=O)O [N-carbamoyl-L-valine]
4. CC(=O)NCC(=O)O [N-acetyl glycine]

Response:
1: 0; 2: 6.80; 3: 0; 4: 0

Dear reader, for each entry below, please note its rel. activity (%).
1. N[C@@H](Cc1c[nH]c2ccccc12)C(=O)NCC(=O)O [L-tryptophyl glycine] (H-Trp-Gly-OH)
2. NC(=O)N[C@@H](Cc1ccccc1)C(=O)O [N-carbamoyl-L-phenylalanine]

Response:
1: 0; 2: 0
